experimental.protocol: in vivo
experimental.context: plasma
quantity: half-life

>>> print(df.to_string())
                              compound   quantity  observed_value
0  OC[C@H]1NC[C@H](O)[C@@H](O)[C@@H]1O  half-life        4 to 8 h

---

experimental.protocol: Phase 1 multiple-dose study of IFG in healthy subjects, plasma pharmacokinetics
Type: in vivo, human
experimental.context: human, plasma; healthy subjects, multiple-dose study, 7 days oral; SEM: 0.6 hr.; read-out: Mean plasma levels (Tmax) peaked
quantity: Tmax

>>> df
                       compound  quantity  observed_value
0  OC[C@H]1CNC[C@@H](O)[C@@H]1O      Tmax          ~3.4 h
